// provenance: patent US20250382363A1

What n-fold to wt was measured for each of the following?
target: T1, human a-PD-L1 Fc (Sino Biological, 10084-H02H, LC11NO2402) (human, UniProt Q9NZQ7 19-239); assay: SPR, PD-L1 Fc immobilised, scFv analyte, 1:1 fit
T1 construct: Bought Fc fusion immobilised on the SPR chip; Printed as 'a-PD-L1 Fc' but used as the antigen (ligand) for the anti-PD-L1 scFvs; also called Human PD-L1; not shown: Fc part
T1 sequence (Q9NZQ7 19-239 limits assumed): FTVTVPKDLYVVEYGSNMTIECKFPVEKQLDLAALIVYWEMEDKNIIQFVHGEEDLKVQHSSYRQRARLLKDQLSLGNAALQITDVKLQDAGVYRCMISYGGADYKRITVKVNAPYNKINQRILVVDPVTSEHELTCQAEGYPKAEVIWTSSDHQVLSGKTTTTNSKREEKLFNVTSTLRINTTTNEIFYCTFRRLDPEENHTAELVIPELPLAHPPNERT

input: Fill in the blank: the reported n-fold to wt of PRO3310 (scFv 37-20-B03-sc09.1_(L12R, T101R, L144A, T146Q)) (scFv, PRO2230 variant; VH substitutions, AHo numbering; also called PRO2230 L12R-T101R-L144A-T146Q) scFv: DIQMTQSPASLSASVGDRVTITCQASQSIGTYLAWYQQKPGKPPKLLIYRAFILASGVPSRFSGSGSGTDFTLTISSLQPEDFATYYCQSNFYSDSTTIGPNAFGTGTKVTVLGGGGGSGGGGSGGGGSGGGGSEVQLVESGGGRVQPGGSLRLSCAASGFSFNSDYWIYWVRQAPGKGLEWIASIYGGSSGNTQYASWAQGRFTISRDNSKNTVYLQMNSLRAEDRAVYFCARGYVDYGGATDLWGQGTAVQVSS is ____.
output: 0.8 fold

input: What value of n-fold to wt has been reported for the following binder? PRO2933 (scFv 37-20-B03-sc09.1_(L144K, T146E, S148K)) (scFv, PRO2230 variant; VH substitutions, AHo numbering; also called PRO2230 L144K-T146E-S148K) scFv: DIQMTQSPASLSASVGDRVTITCQASQSIGTYLAWYQQKPGKPPKLLIYRAFILASGVPSRFSGSGSGTDFTLTISSLQPEDFATYYCQSNFYSDSTTIGPNAFGTGTKVTVLGGGGGSGGGGSGGGGSGGGGSEVQLVESGGGLVQPGGSLRLSCAASGFSFNSDYWIYWVRQAPGKGLEWIASIYGGSSGNTQYASWAQGRFTISRDNSKNTVYLQMNSLRAEDTAVYFCARGYVDYGGATDLWGQGTKVEVKS
output: 0.9 fold

input: If you can, please state the reported n-fold to wt value of PRO3306 (scFv 37-20-B03-sc09.1_(L12A, T101R, L144A, T146Q)) (scFv, PRO2230 variant; VH substitutions, AHo numbering; also called PRO2230 L12A-T101R-L144A-T146Q) scFv: DIQMTQSPASLSASVGDRVTITCQASQSIGTYLAWYQQKPGKPPKLLIYRAFILASGVPSRFSGSGSGTDFTLTISSLQPEDFATYYCQSNFYSDSTTIGPNAFGTGTKVTVLGGGGGSGGGGSGGGGSGGGGSEVQLVESGGGAVQPGGSLRLSCAASGFSFNSDYWIYWVRQAPGKGLEWIASIYGGSSGNTQYASWAQGRFTISRDNSKNTVYLQMNSLRAEDRAVYFCARGYVDYGGATDLWGQGTAVQVSS .
output: 0.4 fold

input: What value of measured n-fold to wt is listed for PRO2903 (scFv 37-20-B03-sc09.1_(L12R, V103T, L144Q)) (scFv, VH substitutions, AHo numbering; also called PRO2230-L12R-V103T-L144Q) scFv: DIQMTQSPASLSASVGDRVTITCQASQSIGTYLAWYQQKPGKPPKLLIYRAFILASGVPSRFSGSGSGTDFTLTISSLQPEDFATYYCQSNFYSDSTTIGPNAFGTGTKVTVLGGGGGSGGGGSGGGGSGGGGSEVQLVESGGGRVQPGGSLRLSCAASGFSFNSDYWIYWVRQAPGKGLEWIASIYGGSSGNTQYASWAQGRFTISRDNSKNTVYLQMNSLRAEDTATYFCARGYVDYGGATDLWGQGTQVTVSS ?
output: 1.1 fold
